Target or test system: Potassium channel subfamily K member 9 (Homo sapiens)
Assay procedure: blockers of human TASK-3 (KCNK9) channel – HEK293 cells, thallium flux, primary screen (AID 488922)
Reported conditions: HEK293 KCNK9, FluxOR thallium flux fluorescence, at 10 µM
Screen size: about 310,000 compounds; about 3,800 (1.2%) were called active.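 Rule for the calls: active = ratio B-score over 3 SD below the library mean, with starting fluorescence within 5 SD of its mean; inactive = the rest, inconclusive results apart.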 The full list was thinned out, with actives kept by preference.
Lab note: assign the record to one of active, inactive

Completed entries (count: 5):
Cc1ccc2nc(SCC(=O)N3CCN(c4ccccc4)CC3)nc(=O)n2c1 : inactive
C/C(=N\N(C)C)c1ccc(OCCOc2ccc([N+](=O)[O-])cc2)cc1 : inactive
CCOc1ccc(NC(=O)N(CC(C)C)CC(C)C)cc1 : inactive
CC(=O)N(C1=C(Cl)C(=O)c2ccccc2C1=O)c1ccc(C(=O)O)cc1 : active
CCCC(C(=O)n1nc(C)cc1C)C(NS(=O)(=O)c1ccc(C)cc1)c1ccccc1 (stereo unspecified) : inactive

Would you kindly look at the next entry?
query: Hi, do you know how CCOc1ccc(NC(=O)N(CCC(C)C)C(C)c2ccco2)cc1 (stereo unspecified) came out in this test?
result: active
